Parameter: functional reporter gene assay (% inhibition), 0.2 µg/mL mAb. Scope: all listed entries.
targetSystem: T1, human IL-1RAcP on 293T/17-FR cells (human, UniProt Q9NPH3 21-570)
T1 sequence (looked up): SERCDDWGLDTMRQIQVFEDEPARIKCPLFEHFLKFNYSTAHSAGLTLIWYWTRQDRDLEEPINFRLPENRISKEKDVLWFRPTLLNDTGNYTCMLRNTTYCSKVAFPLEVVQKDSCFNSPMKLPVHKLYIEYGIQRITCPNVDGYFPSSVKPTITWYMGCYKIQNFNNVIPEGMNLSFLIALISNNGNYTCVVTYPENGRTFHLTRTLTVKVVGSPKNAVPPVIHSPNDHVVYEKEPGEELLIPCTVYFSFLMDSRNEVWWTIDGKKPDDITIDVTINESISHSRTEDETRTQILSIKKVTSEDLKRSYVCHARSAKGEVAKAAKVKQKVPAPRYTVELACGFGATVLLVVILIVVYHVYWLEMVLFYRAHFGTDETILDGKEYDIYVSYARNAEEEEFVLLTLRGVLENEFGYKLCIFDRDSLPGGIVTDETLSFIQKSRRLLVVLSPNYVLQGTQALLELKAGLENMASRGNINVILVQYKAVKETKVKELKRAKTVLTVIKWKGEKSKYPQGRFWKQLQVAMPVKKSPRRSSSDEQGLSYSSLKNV
measurementNotes: cell-based or functional assay
# value in %; strip the unit string

binder	valueObserved
P013.S.02.B.D02 (antibody, V domains shown, rabbit monoclonal antibody; also called P013.A.00086.F05) VH: QSLEESGGDLVKPGASLKLSCTASGVSFSSAYWMCWVRQAPGKGLEWIACIYAGSSGSTYYASWAKGRFTISKTSSTTVTLQMTSLTAADTATYFCARHAAWFELDLWGPGTLVTVSS VL: ALVMTQTPSPVSAAVGGTVTINCQASQNIASAYLSWYQQKPGQPPKLLIYAASTLTDGVPSRFKGSGSVTEFTLTISGVQSDDAATYYCAGYKSYTDDEFAFGGGTEVVVK	22

Q) Annotate the binder P013.S.01.B.H03 (antibody, V domains shown, rabbit monoclonal antibody; also called P013.A.00045.A02) VH: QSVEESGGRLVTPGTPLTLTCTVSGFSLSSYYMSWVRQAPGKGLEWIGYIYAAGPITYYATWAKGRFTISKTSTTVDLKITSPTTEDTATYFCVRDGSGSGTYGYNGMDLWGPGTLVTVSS VL: AYDMTQTPASVEAAVGGTVNIKCQASQSISNWLAWYQQKPGQPPKLLIYRASTLASGVSSRFKGSGSGTQFTLTISGVESADAATYYCQQGASTTDVDNVFGGGTEVVVK with its measured functional reporter gene assay (% inhibition), 0.2 µg/mL mAb.
A) 49
